- test-target: Neuronal acetylcholine receptor; alpha3/beta4 (Homo sapiens, UniProt P30926+P32297)
- Sequence (P32297 whole entry, one chain of several): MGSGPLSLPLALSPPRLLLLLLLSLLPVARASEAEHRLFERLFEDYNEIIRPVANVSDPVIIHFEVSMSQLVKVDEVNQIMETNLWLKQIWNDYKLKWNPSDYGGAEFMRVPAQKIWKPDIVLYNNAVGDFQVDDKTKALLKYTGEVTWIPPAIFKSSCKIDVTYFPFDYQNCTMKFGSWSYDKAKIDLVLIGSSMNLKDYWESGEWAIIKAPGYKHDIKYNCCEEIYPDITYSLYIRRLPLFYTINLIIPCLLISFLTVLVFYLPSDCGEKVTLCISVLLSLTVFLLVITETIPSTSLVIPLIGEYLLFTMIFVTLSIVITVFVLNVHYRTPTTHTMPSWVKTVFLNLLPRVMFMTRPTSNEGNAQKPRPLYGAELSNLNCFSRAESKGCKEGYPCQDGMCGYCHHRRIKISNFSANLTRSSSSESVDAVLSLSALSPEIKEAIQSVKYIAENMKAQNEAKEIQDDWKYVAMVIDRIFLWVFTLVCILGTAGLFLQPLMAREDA
- protocol: Binding affinity against nicotinic acetylcholine receptor alpha3-beta4 using [3H]epibatidine as radioligand expressed in HEK293 cells or tsA cells
quantity-measured: pKi
Give bare numbers, as −log10 of the molar value.

Query: Answer with reported pKi of OC1CC2CC(c3ccc(Cl)nc3)C(C1)N2 (stereo unspecified)
Result: 7.06

====

- test-target: Neuronal acetylcholine receptor; alpha4/beta4 (Homo sapiens, UniProt P30926+P43681)
- Sequence (P30926 whole entry): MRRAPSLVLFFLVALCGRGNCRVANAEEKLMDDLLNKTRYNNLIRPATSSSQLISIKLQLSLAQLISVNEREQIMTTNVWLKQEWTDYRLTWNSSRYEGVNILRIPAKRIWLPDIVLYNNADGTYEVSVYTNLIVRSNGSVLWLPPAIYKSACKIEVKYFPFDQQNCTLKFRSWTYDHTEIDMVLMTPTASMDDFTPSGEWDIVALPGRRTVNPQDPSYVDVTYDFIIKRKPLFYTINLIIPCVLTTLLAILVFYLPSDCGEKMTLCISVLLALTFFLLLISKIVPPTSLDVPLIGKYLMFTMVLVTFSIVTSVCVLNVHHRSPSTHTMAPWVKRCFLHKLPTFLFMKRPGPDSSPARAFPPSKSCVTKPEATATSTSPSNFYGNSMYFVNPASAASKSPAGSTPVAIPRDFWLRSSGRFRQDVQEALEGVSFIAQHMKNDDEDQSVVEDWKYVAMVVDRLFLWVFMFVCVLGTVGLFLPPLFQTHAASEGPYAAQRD
- Sequence (P43681 whole entry): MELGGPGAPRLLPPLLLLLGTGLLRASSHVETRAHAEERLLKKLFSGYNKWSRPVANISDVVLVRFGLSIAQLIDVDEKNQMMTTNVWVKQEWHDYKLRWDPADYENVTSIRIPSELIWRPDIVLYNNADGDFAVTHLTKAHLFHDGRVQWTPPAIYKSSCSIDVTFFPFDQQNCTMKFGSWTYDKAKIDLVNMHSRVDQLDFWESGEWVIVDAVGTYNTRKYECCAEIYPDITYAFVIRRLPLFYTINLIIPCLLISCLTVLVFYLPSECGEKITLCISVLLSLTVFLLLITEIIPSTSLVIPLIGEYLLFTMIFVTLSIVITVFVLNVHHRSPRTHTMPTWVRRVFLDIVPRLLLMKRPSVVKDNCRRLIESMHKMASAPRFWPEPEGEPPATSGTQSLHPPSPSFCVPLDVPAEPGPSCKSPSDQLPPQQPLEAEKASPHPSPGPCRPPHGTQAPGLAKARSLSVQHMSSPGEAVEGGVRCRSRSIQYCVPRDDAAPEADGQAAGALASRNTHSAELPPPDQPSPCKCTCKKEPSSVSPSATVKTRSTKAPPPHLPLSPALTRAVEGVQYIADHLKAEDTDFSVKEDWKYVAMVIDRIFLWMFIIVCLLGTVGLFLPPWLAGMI
- protocol: Binding affinity against nicotinic acetylcholine receptor alpha4-beta4 using [3H]epibatidine as radioligand expressed in HEK293 cells or tsA cells
quantity-measured: Ki (nM)
Numbers only, in nM.

Query: Answer with reported Ki of OC1CC2CC(c3ccc(Cl)nc3)C(C1)N2 (stereo unspecified)
Result: 38

====

- test-target: Neuronal acetylcholine receptor; alpha2/beta4 (Homo sapiens, UniProt P30926+Q15822)
- Sequence (Q15822 whole entry, one chain of several): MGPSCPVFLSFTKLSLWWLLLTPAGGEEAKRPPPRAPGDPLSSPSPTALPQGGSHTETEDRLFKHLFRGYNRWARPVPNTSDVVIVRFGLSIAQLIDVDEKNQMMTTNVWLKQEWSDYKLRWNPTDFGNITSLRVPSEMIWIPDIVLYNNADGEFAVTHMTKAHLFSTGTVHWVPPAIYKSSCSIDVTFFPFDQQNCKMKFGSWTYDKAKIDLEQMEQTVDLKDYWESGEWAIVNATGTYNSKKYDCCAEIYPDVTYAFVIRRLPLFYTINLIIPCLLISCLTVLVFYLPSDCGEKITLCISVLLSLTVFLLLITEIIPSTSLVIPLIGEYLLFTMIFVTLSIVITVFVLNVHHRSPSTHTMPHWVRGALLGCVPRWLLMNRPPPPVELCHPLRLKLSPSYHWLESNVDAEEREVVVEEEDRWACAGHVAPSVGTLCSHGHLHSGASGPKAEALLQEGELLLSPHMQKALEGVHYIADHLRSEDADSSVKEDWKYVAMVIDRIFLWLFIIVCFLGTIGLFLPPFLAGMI
- protocol: Binding affinity against nicotinic acetylcholine receptor alpha2-beta4 using [3H]epibatidine as radioligand expressed in HEK293 cells or tsA cells
Give measured Ki for each item. Keep answers brief.
Give bare numbers, in nM.

Reference set (2 entries):
>  <molecule>
OC1CC2CC(c3ccc(Cl)nc3)C(C1)N2 (stereo not drawn)

>  <quantity-measured>
Ki

>  <value-units>
nM

>  <result-number>
31

$$$$
>  <molecule>
CN1CCC[C@H]1c1cccnc1

>  <quantity-measured>
Ki

>  <value-units>
nM

>  <result-number>
103

$$$$

--- query ---
Query: Answer with reported Ki of Clc1ccc(C2CC3CCC2N3)cn1 (stereo not drawn) [EPIBATIDINE]
Result: 0.091

====

- test-target: Neuronal acetylcholine receptor
- protocol: Binding affinity against nicotinic acetylcholine receptor using [3H]epibatidine as radioligand in rat brain tissue
- Assay type: tissue-based
quantity-measured: Ki (nM)
Numbers only, in nM.

Query: Answer with reported Ki of OC1CC2CC(c3ccc(Cl)nc3)C(C1)N2 (stereo unspecified)
Result: 18

Source of measurements: ChEMBL document CHEMBL1146702
